Test system: OVCAR3 cells
Assay: MTT proliferation assay, OVCAR3;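 note: compound given as an 8- or 10-point series, one day after plating, with exposure covering roughly 3-4 cell doublings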
Type: cell-based
Details: 5 days compound exposure, 1:3 serial dilution starting at 10 μM
*1 amine or outer side, *2 acyl side, *3 side chain or, on linkers, in order; H or OH if unused. Where a SMILES comes first, the peptide text is derived from it. Bridges are numbered along the chain shown (N, C = ends). [ ]: non-standard residue; d: D form. The star is where a group is joined. X134 = CN([C@@H](Cc1cc(Cl)ccc1-c1cnc2[nH]c(O)cc2c1)C(=O)[*:2])[*:1]; NMehhhLys(Me) = CN([C@@H](CCCCCCCN(C)[*:3])C(=O)[*:2])[*:1]; X207 = CN([C@@H](Cc1cc(F)ccc1-c1cn(C)cn1)C(=O)[*:2])[*:1]; cBuCO(3,3-F2-1-CF3) = O=C(C1(C(F)(F)F)CC(F)(F)C1)*; Pro(trans-4-F) = O=C(O)[C@@H]1C[C@@H](F)CN1; Gly(cPr) = N[C@H](C(=O)O)C1CC1
readout: GI50 (nM)
Number only, in nM; omit the unit.

compound	systemName	GI50 (nM)
CC(C)C[C@@H]1NC(=O)[C@@H](N(C)C(=O)[C@@H](NC(=O)[C@@H]2C[C@@H](F)CN2C(=O)C2(C(F)(F)F)CC(F)(F)C2)C2CC2)CCCCCCCN(C)C(=O)[C@H](Cc2cc(F)ccc2-c2cn(C)cn2)N(C)C1=O [Example 164] ({cBuCO(3,3-F2-1-CF3)}-[Pro(trans-4-F)][Gly(cPr)][NMehhhLys(Me)]L[X207]; lactam 3-C)	OVCAR3 cells	30
CC(=O)N1CC=C(c2ccc(Cl)cc2C[C@H]2C(=O)N(C)CCCCC=CC[C@H](N(C)C(=O)[C@@H](NC(=O)[C@@H]3C[C@@H](F)CN3C(=O)C3(C(F)(F)F)CCC3)C3CC3)C(=O)N[C@@H](CC(C)C)C(=O)N2C)CC1	OVCAR3 cells	350

Attention now turns to another entry.
Request: // map CC(C)C[C@@H]1NC(=O)[C@@H](N(C)C(=O)[C@@H](NC(=O)[C@@H]2C[C@@H](F)CN2C(=O)C2(C(F)(F)F)CC(F)(F)C2)C2CC2)CCCCCCCN(C)C(=O)[C@H](Cc2cc(Cl)ccc2-c2cnc3[nH]c(O)cc3c2)N(C)C1=O [Example 272] ({cBuCO(3,3-F2-1-CF3)}-[Pro(trans-4-F)][Gly(cPr)][NMehhhLys(Me)]L[X134]; lactam 3-C) to recorded GI50 (system: OVCAR3 cells)
Result: 430
